Items are presented alongside their recorded Kd.
Target: T1, Recombinant mouse MMR (R&D systems) (mouse, UniProt Q61830 20-1388)
T1 construct: Antigen of the PE-ELISA and the SPR; also called mMMR; recombinant mMMR
T1 sequence: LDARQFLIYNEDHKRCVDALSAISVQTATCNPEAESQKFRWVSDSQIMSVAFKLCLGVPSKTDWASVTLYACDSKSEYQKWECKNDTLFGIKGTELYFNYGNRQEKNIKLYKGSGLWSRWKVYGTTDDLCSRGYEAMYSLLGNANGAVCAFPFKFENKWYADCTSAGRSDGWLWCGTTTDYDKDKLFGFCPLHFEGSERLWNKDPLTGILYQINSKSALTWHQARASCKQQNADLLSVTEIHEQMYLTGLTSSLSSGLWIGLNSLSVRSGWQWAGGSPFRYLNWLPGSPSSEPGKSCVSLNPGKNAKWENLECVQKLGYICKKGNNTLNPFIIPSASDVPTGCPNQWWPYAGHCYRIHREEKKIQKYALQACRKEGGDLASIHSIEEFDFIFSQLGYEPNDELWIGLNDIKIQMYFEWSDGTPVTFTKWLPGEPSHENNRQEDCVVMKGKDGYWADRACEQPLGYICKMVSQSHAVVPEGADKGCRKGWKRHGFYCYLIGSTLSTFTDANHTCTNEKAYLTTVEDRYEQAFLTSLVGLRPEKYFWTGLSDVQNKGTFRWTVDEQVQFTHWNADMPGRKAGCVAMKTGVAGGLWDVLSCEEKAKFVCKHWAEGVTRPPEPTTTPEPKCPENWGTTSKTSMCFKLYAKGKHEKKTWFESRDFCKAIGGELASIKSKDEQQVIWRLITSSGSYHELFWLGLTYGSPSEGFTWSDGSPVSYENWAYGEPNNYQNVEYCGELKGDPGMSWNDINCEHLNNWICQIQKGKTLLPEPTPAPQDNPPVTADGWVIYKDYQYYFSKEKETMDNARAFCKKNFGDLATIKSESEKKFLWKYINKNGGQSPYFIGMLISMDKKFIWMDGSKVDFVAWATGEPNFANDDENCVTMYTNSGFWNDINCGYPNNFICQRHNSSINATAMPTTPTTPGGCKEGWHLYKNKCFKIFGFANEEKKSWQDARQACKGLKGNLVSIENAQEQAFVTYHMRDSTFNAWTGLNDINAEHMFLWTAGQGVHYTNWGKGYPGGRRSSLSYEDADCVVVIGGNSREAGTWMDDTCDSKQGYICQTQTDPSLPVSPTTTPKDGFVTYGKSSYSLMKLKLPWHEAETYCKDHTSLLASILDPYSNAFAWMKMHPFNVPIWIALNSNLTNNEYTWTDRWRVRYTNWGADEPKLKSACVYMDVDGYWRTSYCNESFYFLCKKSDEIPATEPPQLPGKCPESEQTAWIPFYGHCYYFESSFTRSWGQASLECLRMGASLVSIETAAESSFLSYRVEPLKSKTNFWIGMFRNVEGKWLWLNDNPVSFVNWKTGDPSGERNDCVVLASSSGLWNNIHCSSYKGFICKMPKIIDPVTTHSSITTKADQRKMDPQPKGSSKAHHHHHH
Assay: SPR, BIAcore T100; mouse MMR on CM5 chip, sdAb as analyte
Report field: quantity (unit follows the number).

Guide cases for Kd, answers given:
binder | Kd
NbhMMRm10.19 (VHH, Produced from pMECS with C-terminal HA and 6xHis tag) VHH: QVQLQESGGGLVQPGGSLKLSCAASGSIFSIKTMGWYRQAPGKQRELVAAITSGGSTNYADSVKGRFTISRDNAKNTVYLQMNSLKPEDTAVYYCNADGVVAWDQPYDNYWGQGTQVTVSS | 250 nM
NbhmMMRm26.70 (VHH, Produced from pMECS with C-terminal HA and 6xHis tag) VHH: QVQLQESGGGLVQPGGSLRLSCTASGFPFSSAPMSWVRQAPGKELEWVSYIGYTGTITDYANSVKGRFTISRDNAKNRLYLQMNSLKPEDTAVYFCAQGYARLIADSDLVRGQGTQVTVSS | 1.9 nM
NbhmMMRm19.52 (VHH, Produced from pMECS with C-terminal HA and 6xHis tag) VHH: QVQLQESGGGLVQAGGSLRLSCLASGDTFSNYVMAWFRQAPGKEREIVAAIRLSGARYVPDSVKGRFTISRDNAKNAMYLQMTSLKPEDTARYYCAAGHTWGQYAYWGQGTQVTVSS | 8500 nM

Reported Kd, binder NbhMMRm3.1 (VHH, Produced from pMECS with C-terminal HA and 6xHis tag; also called NbhmMMRm3.1) VHH: QVQLQESGGGLVQPGGSLRLSCAASGFTLDYYAIGWFRQAPGKEREGISCISYKGGSTTYADSVKGRFTISKDNAKNTAYLQMNNLKPEDTGIYYCAAGFVCYNYDYWGPGTQVTVSS : ____
19 nM
